Here is a set of compounds with reported pIC50 for UniProt:P19327, compiled from the literature.
pIC50: −log10 of the molar value.
reportedMetric: pIC50

* COc1ccc2c(c1)CCC=C2CCCN1CCN(c2ccccn2)CC1 | 7.20
* COc1ccccc1N1CCN(CCCCN2CSC(C)(C)C2=O)CC1 | 7.96
* COc1ccc2[nH]cc(CCCCN3CCN(c4ccc(OC)c(OC)c4)CC3)c2c1 | 8.00
* Cl.O=C(NCCCCN1CCN(c2nsc3ccccc23)CC1)c1ccccc1[N+](=O)[O-] | 8.19
* CC(C)(O)C1SCN(CCCCN2CCN(c3nsc4ccccc34)CC2)C1=O (stereo not given) | 7.92

---

Target: 5-hydroxytryptamine receptor 1A (Rattus norvegicus, UniProt P19327)
Sequence (P19327 whole entry): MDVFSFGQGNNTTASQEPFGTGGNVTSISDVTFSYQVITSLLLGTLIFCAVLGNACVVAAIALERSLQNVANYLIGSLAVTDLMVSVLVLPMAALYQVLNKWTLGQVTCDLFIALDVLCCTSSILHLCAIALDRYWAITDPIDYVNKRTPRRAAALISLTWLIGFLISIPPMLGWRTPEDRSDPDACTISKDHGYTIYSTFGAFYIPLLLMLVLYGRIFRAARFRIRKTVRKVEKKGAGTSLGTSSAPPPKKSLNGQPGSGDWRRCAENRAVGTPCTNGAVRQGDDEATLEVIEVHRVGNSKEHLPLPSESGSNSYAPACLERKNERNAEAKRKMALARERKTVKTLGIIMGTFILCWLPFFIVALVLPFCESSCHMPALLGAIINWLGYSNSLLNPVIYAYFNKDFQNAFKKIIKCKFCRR
pIC50: −log10 of the molar value.
Here is a set of molecules with reported pIC50 for 5-hydroxytryptamine receptor 1A (Rattus norvegicus, UniProt P19327), compiled from the literature.
Binary call on pIC50: condition met from 8 upward, condition not met beneath that.

- N#Cc1ccc2[nH]cc(CCCCN3CCN(c4c(C#N)cccc4C#N)CC3)c2c1: condition not met
- O=C1c2ccccc2C(=O)N1OCCCN1CCN(c2nsc3ccccc23)CC1: condition not met
- OC1(c2ccc3c(c2)OCO3)CCC(N2CCN(Cc3ccccc3)CC2)CC1 (centres undefined): condition not met
- NC(=O)c1ccc2[nH]cc(CCCCN3CCN(c4ccc5c(c4)OCO5)CC3)c2c1: condition met
- CCOCCOCCOc1cccc(N2CCN(CCCCc3c[nH]c4ccc(C(N)=O)cc34)CC2)c1C#N: condition met
- COc1ccc(CN2CCN(C3CCC(O)(c4ccc5c(c4)OCO5)CC3)CC2)cc1 (centres undefined): condition not met
- Cl.Nc1cccc(F)c1C(=O)NCCCCN1CCN(c2nsc3ccccc23)CC1: condition met
- COc1ccc2[nH]cc(CCCCN3CCN(c4ccc5c(c4)OCO5)CC3)c2c1: condition met
- CCOc1ccccc1N1CCN(Cc2cn(-c3ccc(F)cc3)c(-c3ccc(F)cc3)n2)CC1: condition not met
- N#Cc1ccc2[nH]cc(CCCCN3CCN(c4ccc5nsnc5c4)CC3)c2c1: condition met
- COc1ccccc1N1CCN(CCC[C@H]2CCCc3c(OC)cccc32)CC1: condition met
- Cc1ccc(N2CCN(CCC(OC(N)=O)c3ccccc3)CC2)cc1 (single isomer, unassigned): condition not met
- N#Cc1ccc2[nH]cc(CCCCN3CCN(c4ccc5oc(=O)ccc5c4)CC3)c2c1: condition met
- O=C1CC2(CCCC2)CC(=O)N1OCCCN1CCN(c2nsc3ccccc23)CC1: condition not met
- CC1SC2(CCCC2)C(=O)N1CCCCN1CCN(c2csc3cc(F)ccc23)CC1 (centres undefined): condition not met
- Clc1cccc(N2CCN(Cc3cn(-c4ccccc4)c(-c4ccccc4)n3)CC2)c1: condition not met
- COc1ccc(CCN2CCC(NC(=O)C34CC5CC(CC(C5)C3)C4)C2)cc1 (centres undefined): condition not met

---

Here is a set of molecules with reported IC50 for 5-hydroxytryptamine receptor 1A (Rattus norvegicus, UniProt P19327), compiled from the literature.
Molecular target: 5-hydroxytryptamine receptor 1A (Rattus norvegicus, UniProt P19327)
Sequence (P19327 whole entry): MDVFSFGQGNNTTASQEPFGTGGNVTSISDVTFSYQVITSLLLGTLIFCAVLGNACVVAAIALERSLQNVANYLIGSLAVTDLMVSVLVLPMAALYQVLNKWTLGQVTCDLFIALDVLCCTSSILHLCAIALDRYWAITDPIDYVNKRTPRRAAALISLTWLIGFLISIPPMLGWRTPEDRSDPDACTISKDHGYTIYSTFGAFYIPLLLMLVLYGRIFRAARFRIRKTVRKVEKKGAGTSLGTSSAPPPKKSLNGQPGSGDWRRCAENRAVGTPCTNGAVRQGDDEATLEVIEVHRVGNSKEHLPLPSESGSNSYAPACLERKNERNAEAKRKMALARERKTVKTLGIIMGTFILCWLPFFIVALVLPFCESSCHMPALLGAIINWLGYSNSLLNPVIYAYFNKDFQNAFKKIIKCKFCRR
For each record, check the reported IC50: if it is below 20 nM write yes, else write no.

• COc1ccc2c(c1)C(CCCN1CCN(c3ccccc3OC)CC1)CCC2 (stereo unspecified) = yes
• COc1ccc(F)c(CN2CCN(C3CCC(O)(c4ccc5c(c4)OCO5)CC3)CC2)c1 (stereo unspecified) = yes
• O=C(NC[C@H]1CCCN1CCc1ccccc1)c1ccccc1 = no
• COc1ccc(N2CCN(CCCCc3c[nH]c4ccc(OC(C)=O)cc34)CC2)cc1 = yes
• COc1ccccc1OCCNCC(=O)N1CCCSc2c1cnn(C)c2=O = no
• COc1ccc(N2CCN(CCCCc3c[nH]c4ccc(OC5CCCC5)cc34)CC2)cc1 = no
• COc1ccc2c(c1)CCC=C2CCCN1CCN(c2cccc(C(F)(F)F)c2)CC1 = no
• Fc1ccc(-c2cncc(CN3CCN(c4ccc(F)cc4)CC3)c2)cc1 = no
• OC1(c2ccc3c(c2)OCO3)CCC(N2CCN(Cc3cc(F)ccc3F)CC2)CC1 (stereo unspecified) = yes
• NC(=O)c1ccc2[nH]cc(C3=CCC(NCCCNC4CC=C(c5c[nH]c6ccc(C(N)=O)cc56)CC4)CC3)c2c1 (stereo unspecified) = yes
• O=C1CSCN1CCCCN1CCN(c2ccc3ccccc3n2)CC1 = no
• COc1ccc2[nH]cc(CCCCN3CCN(c4ccc(OC(=O)C(C)(C)C)cc4)CC3)c2c1 = no
• NC(=O)c1ccc2[nH]cc(C3=CCC(NCCCCCNC4CC=C(c5c[nH]c6ccc(C(N)=O)cc56)CC4)CC3)c2c1 (stereo unspecified) = yes
• O=c1[nH]n(CCCCN2CCN(c3nsc4ccccc34)CC2)c(=O)c2ccccc12 = yes
• CCOC(=O)n1c2ccccc2c(=O)n1CCCCN1CCN(c2nsc3ccccc23)CC1 = no
• O=C(c1ccc(F)cc1)C1CCN(CCn2c(=O)[nH]c3ccccc3c2=O)CC1 = no
